System: NCI-H23 lung
Assay: NCI tumour cell line growth inhibition, 384-well format
recordedEndpoint: TGI (µM)

[[record]]
samplesmiles = "CS(=O)(=O)Nc1cc(-c2ccc3ncnc(Nc4ccc(F)c(Cl)c4)c3c2)cnc1Cl"
unitannotation = "µM"
prefixoperator = "="
measvalue = 4.03

[[record]]
samplesmiles = "CN1CCN(c2ccc(OC(F)(F)F)c(Nc3ncc4c(n3)-c3c(c(C(N)=O)nn3CCO)CC4)c2)CC1"
unitannotation = "µM"
prefixoperator = "="
measvalue = 0.0377

[[record]]
samplesmiles = "N#Cc1ccc(-c2c(-c3ncn[nH]3)sc(N3CCOCC3)c2C#N)c(F)c1"
unitannotation = "µM"
prefixoperator = ">"
measvalue = 55.3

[[record]]
samplesmiles = "O=C1CC[C@H](N2Cc3c(OCc4ccc(CN5CCOCC5)cc4)cccc3C2=O)C(=O)N1"
unitannotation = "µM"
prefixoperator = ">"
measvalue = 100

